# System: Escherichia coli (ATCC 25922)
# Type: cell-based
# experimental-parameters: ATCC 25922
Where no end group is shown, it is not given here.
Checkbox rule: Antimicrobial Activity (MIC) E. coli ATCC 25922 lower than 8 µM = Satisfied; Antimicrobial Activity (MIC) E. coli ATCC 25922 not lower than 8 µM = Not satisfied.

FLGALIPAIAGAIGGLIRK-NH2 [hylin-Pul3, reference compound] :: Not satisfied
LWPAIRGAIKKLIKK-NH2 [dHP3-31] :: Not satisfied
RRIALIPAIRGAIKKLIKK-NH2 [dHP3-50.190] :: Not satisfied
RAGALWPAIRGAIKKIIKK-NH2 [dHP3-50.137] :: Satisfied

Request: Is Antimicrobial Activity (MIC) E. coli ATCC 25922 of RRGKLIPRLAKAIGRLIRK-OH [dHP3-84.39] strictly below 8 µM?
Result: Satisfied
